In this section we review reported Cmax values for a set of compounds.
- PROTOCOL NOTES: Pharmacokinetics in mice, brain
- Type: in vivo, C57BL/6 mice
- STATED CONDITIONS: male, C57BL/6; mouse brain, SC, 10 mg/kg; read-out: Cmax
Structures can show the parent of a compound that is named as a salt.
Your answer is read as ng/g, so omit the unit and give the number.

See these solved cases before continuing.
compound=CCN(C)CCc1c[nH]c2cccc(O)c12 measured_attribute=Cmax result_number=2920
compound="CN(C)CCc1c[nH]c2ccc(F)cc12 [Compound 5, hydrochloride]" measured_attribute=Cmax result_number=778

Then this compound:
Exam item: Need Cmax of CCN(C)CCc1c[nH]c2ccc(F)cc12 [Compound 4, hydrochloride] , thanks.
Marked response: 3510

====

- PROTOCOL NOTES: Metabolic stability in mouse liver microsomes (MLM)
- Assay type: in vitro ADME, CD-1 mice
- STATED CONDITIONS: CD-1, mouse, pooled mouse liver microsomes, pH 7.4, NADPH
Where a name gives a salt, the structure may show the parent alone.
In this section we review reported log10 of half-life at 1 μM values for a set of molecules.
Log scale reminder: half-life at 1 μM in min, then log10 taken.

See these solved cases before continuing.
molecule="CCCN(CC)CCc1c[nH]c2ccc(F)cc12 [Compound 3, hydrochloride]" measured_attribute="log10 of half-life at 1 μM" result_number=0.74
molecule=CCCN(CC)CCc1c[nH]c2ccccc12 measured_attribute="log10 of half-life at 1 μM" result_number=0.78
molecule="CN(C)CCc1c[nH]c2ccccc12 [DMT, N,N-dimethyltryptamine, reference compound]" measured_attribute="log10 of half-life at 1 μM" result_number=1.84
molecule="COc1ccc2[nH]cc(CCN(C)C)c2c1 [Compound 5-MeO-DMT, 5-methoxy-N,N-dimethyltryptamine, reference compound]" measured_attribute="log10 of half-life at 1 μM" result_number=1.69
molecule="CN(C)CCc1c[nH]c2cccc(O)c12 [Psilocin, psilocin, reference compound]" measured_attribute="log10 of half-life at 1 μM" result_number=2.10
molecule="CCN(C)CCc1c[nH]c2ccc(F)cc12 [Compound 4, hydrochloride]" measured_attribute="log10 of half-life at 1 μM" result_number=1.68

Exam item: Need log10 of half-life at 1 μM of CN(C)CCc1c[nH]c2ccc(F)cc12 [Compound 5, hydrochloride] , thanks.
Marked response: 1.44

Exam item: Need log10 of half-life at 1 μM of CCN(C)CCc1c[nH]c2ccccc12 , thanks.
Marked response: 2.01

====

- PROTOCOL NOTES: Pharmacokinetics in mice, brain
- Format: in vivo, C57BL/6 mice
- STATED CONDITIONS: male, C57BL/6; mouse brain, oral, 10 mg/kg; read-out: Cmax
- Protocol: Animals. Male C57BL/6 mice, aged 8-12 weeks, were used in these studies. Four mice were housed in each cage. […] Temperature and humidity were recorded by an auto-controlled data logger system. […] Drugs. […] They were then administered intravenously (IV) via the tail vein, subcutaneously (SC), or orally (PO) via gavage at a dose of 1 or 10 mg/kg (calculated based on the free base) and at a volume of 5 ml/kg body weight. […]
Structures can show the parent of a compound that is named as a salt.
MEASURED ATTRIBUTE: Cmax (ng/g)
Your answer is read as ng/g, so omit the unit and give the number.

See these solved cases before continuing.
compound="CCN(C)CCc1c[nH]c2ccc(F)cc12 [Compound 4, hydrochloride]" result_number=1400
compound=CCN(C)CCc1c[nH]c2ccccc12 result_number=957

Then this compound:
Exam item: Need Cmax of CCCN(CC)CCc1c[nH]c2ccccc12 , thanks.
Marked response: 101

Cited source for all entries: patent US20240317683A1
